System: SK-MEL-28
ASSAY_EXPLANATION: Cytotoxicity against human SK-MEL-28 cells after 4 hrs by MTT assay
Format: functional, cell-based
RECORDED_CONDITIONS: SK-MEL-28, 4 h
OUTCOME_MEASURE: pIC50
Entry type: numeric. Quantity: pIC50, the -log10 of concentration in molar units.

Any idea what pIC50 was measured for NCCNC(=O)C(CN)(Cc1ccc2ccccc2c1)Cc1ccc2ccccc2c1 ?
5.46

###

Test system: SK-OV-3
ASSAY_EXPLANATION: Cytotoxicity against human SKOV3 cells after 4 hrs by MTT assay
Format: functional, cell-based
RECORDED_CONDITIONS: SK-OV-3, 4 h
OUTCOME_MEASURE: IC50 (µM)
The answer is to be given in µM; state only the numeric part.

Provide value of IC50 for this record tested with SK-OV-3: NCCNC(=O)C(CN)(Cc1ccc2ccccc2c1)Cc1ccc2ccccc2c1
3.02

Reference source for all entries: ChEMBL document CHEMBL2150936
